Give MIC for every item shown.
# Test system: Staphylococcus aureus
# Experimental Details: Antibacterial activity against Staphylococcus aureus 503 after 24 hrs by two-fold serial dilution method
# Type: functional
# Run Parameters: Staphylococcus aureus, 503, 24 h
Numbers only, in µg/mL.

Below: 5 compounds and their reported MIC.
| Compound | System Under Test | Unit Name | MIC |
| --- | --- | --- | --- |
| N=C(N)N/N=C/c1cn(-c2ccc([N+](=O)[O-])cc2[N+](=O)[O-])nc1-c1ccccc1F | Staphylococcus aureus | µg/mL | 8 |
| N=C(N)N/N=C/c1cn(-c2ccc([N+](=O)[O-])cc2[N+](=O)[O-])nc1-c1ccc(Br)cc1 | Staphylococcus aureus | µg/mL | 2 |
| N=C(N)N/N=C/c1cn(-c2ccc([N+](=O)[O-])cc2[N+](=O)[O-])nc1-c1ccccc1Cl | Staphylococcus aureus | µg/mL | 4 |
| N=C(N)N/N=C/c1cn(-c2ccc([N+](=O)[O-])cc2[N+](=O)[O-])nc1-c1cccc(Br)c1 | Staphylococcus aureus | µg/mL | 2 |
| N=C(N)N/N=C/c1cn(-c2ccc([N+](=O)[O-])cc2[N+](=O)[O-])nc1-c1ccc(Cl)cc1Cl | Staphylococcus aureus | µg/mL | 2 |

Provide reported MIC for each item, in the same order as listed.
1. COc1c(N2CCNC(C)C2)c(F)cc2c(=O)c(C(=O)O)cn(C3CC3)c12 (stereo not given)
2. Cc1cccc(-c2nn(-c3ccc([N+](=O)[O-])cc3[N+](=O)[O-])cc2/C=N/NC(=N)N)c1
3. N=C(N)N/N=C/c1cn(-c2ccccc2)nc1-c1ccc(Br)cc1
4. N=C(N)N/N=C/c1cn(-c2ccc([N+](=O)[O-])cc2[N+](=O)[O-])nc1-c1ccccc1Br
5. N=C(N)N/N=C/c1cn(-c2ccc([N+](=O)[O-])cc2[N+](=O)[O-])nc1-c1cccc(Cl)c1

Out:
2
2
4
4
2

Provide reported MIC for each item, in the same order as listed.
1. Cc1ccc(-c2nn(-c3ccccc3)cc2/C=N/NC(=N)N)cc1
2. COc1cccc(-c2nn(-c3ccc([N+](=O)[O-])cc3[N+](=O)[O-])cc2/C=N/NC(=N)N)c1
3. Cc1ccc(-c2nn(-c3ccc([N+](=O)[O-])cc3[N+](=O)[O-])cc2/C=N/NC(=N)N)cc1
4. N=C(N)N/N=C/c1cn(-c2ccccc2)nc1-c1ccc(F)cc1

Out:
4
4
2
16

###

# Tested on: Escherichia coli
# Experimental Details: Antibacterial activity against Escherichia coli KCTC 1924 after 24 hrs by two-fold serial dilution method
# Type: functional
# Run Parameters: KCTC 1924, 24 h
Measured Attribute: log10(MIC) (log10 of the value in µg/mL)
Please interpret these as log10 of MIC where MIC is in µg/mL.

| Molecule | log10(MIC) |
| --- | --- |
| N=C(N)N/N=C/c1cn(-c2ccccc2)nc1-c1ccc(Br)cc1 | 0.90 |
| N=C(N)N/N=C/c1cn(-c2ccc([N+](=O)[O-])cc2[N+](=O)[O-])nc1-c1ccccc1 | 0.90 |
| N=C(N)N/N=C/c1cn(-c2ccc([N+](=O)[O-])cc2[N+](=O)[O-])nc1-c1ccc(Cl)cc1 | 0.30 |
| COc1cccc(-c2nn(-c3ccc([N+](=O)[O-])cc3[N+](=O)[O-])cc2/C=N/NC(=N)N)c1 | 0.60 |
| Cc1ccc(-c2nn(-c3ccc([N+](=O)[O-])cc3[N+](=O)[O-])cc2/C=N/NC(=N)N)c(C)c1 | 0.30 |
| N=C(N)N/N=C/c1cn(-c2ccc([N+](=O)[O-])cc2[N+](=O)[O-])nc1-c1ccc(Br)cc1 | 0.30 |
| N=C(N)N/N=C/c1cn(-c2ccc([N+](=O)[O-])cc2[N+](=O)[O-])nc1-c1ccccc1F | 0.90 |
| Cc1ccc(-c2nn(-c3ccccc3)cc2/C=N/NC(=N)N)cc1 | 0.30 |

Provide reported log10(MIC) for each item, in the same order as listed.
1. N=C(N)N/N=C/c1cn(-c2ccc([N+](=O)[O-])cc2[N+](=O)[O-])nc1-c1ccccc1[N+](=O)[O-]
2. N=C(N)N/N=C/c1cn(-c2ccc([N+](=O)[O-])cc2[N+](=O)[O-])nc1-c1cccc(Cl)c1
3. N=C(N)N/N=C/c1cn(-c2ccc([N+](=O)[O-])cc2[N+](=O)[O-])nc1-c1ccccc1Br
4. N=C(N)N/N=C/c1cn(-c2ccc([N+](=O)[O-])cc2[N+](=O)[O-])nc1-c1ccc(F)cc1
5. N=C(N)N/N=C/c1cn(-c2ccc([N+](=O)[O-])cc2[N+](=O)[O-])nc1-c1ccc(Cl)cc1Cl
6. COc1ccc(-c2nn(-c3ccc([N+](=O)[O-])cc3[N+](=O)[O-])cc2/C=N/NC(=N)N)cc1
7. N=C(N)N/N=C/c1cn(-c2ccccc2)nc1-c1cccc(Cl)c1

Out:
1. 1.20
2. 0.30
3. 0.60
4. 0.60
5. 0.30
6. 0.60
7. 0.00

Where do the numbers come from? From ChEMBL document CHEMBL3627681.
